System: SNB-19 CNS
METHOD SUMMARY: NCI tumour cell line growth inhibition, 48 h; in the data active = GI50 below about 0.43 µM; inactive = the rest
Pick one and only one: active, inactive

See these solved cases before continuing.
>  <COMPOUND>
COc1cc(C(=O)c2cc(C)c3[nH]c4ccc(C)cc4c3c2C)cc(OC)c1OC

>  <ASSIGNED LABEL>
active

$$$$
>  <COMPOUND>
Cc1ccc(-c2nc3ccc(Cl)cc3c(=O)n2N2C(=O)CSC2c2ccccc2Cl)cc1 (stereo not given)

>  <ASSIGNED LABEL>
inactive

$$$$
>  <COMPOUND>
Cc1ccc2[nH]c(O)c(N=Nc3ccc(S(N)(=O)=O)cc3)c2c1

>  <ASSIGNED LABEL>
inactive

$$$$

QUERY: Entry "CC(C)C[C@H](NC(=O)/C=C/Cn1ccc2ccccc2c1=O)B(O)O" : call = ?
RESULT: inactive

QUERY: Note, next up: "O=c1cc(NC2CCN(CCCc3ccccc3)CC2)c2cc(Cl)ccc2o1"
RESULT: inactive

----------
Tested on: NCI-H460 lung
METHOD SUMMARY: NCI tumour cell line growth inhibition, 48 h
# maps each entry to its TGI

// solved cases for TGI follow
>  <COMPOUND>
O=C(NCO)NCOCn1c(=O)n(CO)c(=O)n(CO)c1=O

>  <EXPERIMENTAL TARGET>
NCI-H460 lung

>  <TGI>
> 94.8 µM

$$$$
>  <COMPOUND>
NNC(=O)CSc1nc2ccccc2c(=O)n1N

>  <EXPERIMENTAL TARGET>
NCI-H460 lung

>  <TGI>
> 100 µM

$$$$
>  <COMPOUND>
O=C1Nc2ccc(F)cc2/C1=C/c1ccc[nH]1

>  <EXPERIMENTAL TARGET>
NCI-H460 lung

>  <TGI>
> 25 µM

$$$$
>  <COMPOUND>
CC(=O)NC1c2ccccc2C(C)(C)C12CCC1(CC2)OCCO1 (centres undefined)

>  <EXPERIMENTAL TARGET>
NCI-H460 lung

>  <TGI>
> 10 µM

$$$$
>  <COMPOUND>
CC1=CC(C/C(C)=C/COc2ccc3ccc(=O)oc3c2)OC1=O (centres undefined)

>  <EXPERIMENTAL TARGET>
NCI-H460 lung

>  <TGI>
> 100 µM

$$$$

QUERY: Any idea what its TGI is? The compound is "O=c1c2ccccc2c(=O)c2c1[nH]c1c(-c3ccccc3)c(-c3ccccc3)c(=O)c12"
RESULT: 12 µM

QUERY: Note, next up: CCOC(=O)C1C2CCC1CC(=NNc1ccc([N+](=O)[O-])cc1[N+](=O)[O-])C2 (centres undefined)
RESULT: > 50 µM

QUERY: Note, next up: "N#Cc1c(Cl)cc(Cl)n2c1nc1ccccc12"
RESULT: 23.7 µM

QUERY: Note, next up: "O=C(O)[C@H](NS(=O)(=O)c1ccc([N+](=O)[O-])cc1)c1ccccc1"
RESULT: > 100 µM

----------
Tested on: SF-539 CNS
METHOD SUMMARY: NCI tumour cell line growth inhibition, 48 h
ASSAY METRIC: TGI

// solved cases for TGI follow
>  <COMPOUND>
CC(C)(C)c1cc(C(O)(C(F)(F)F)C(F)(F)F)c2c(c1)C(C(F)(F)F)(C(F)(F)F)OC(C(C)(C)C)N2 (configuration not stated)

>  <RECORDED VALUE>
6.68 µM

$$$$
>  <COMPOUND>
CCN(CC)c1ccc(N=Nc2ccc(-c3nc4ccc[n+](C)c4s3)cc2)cc1

>  <RECORDED VALUE>
23 µM

$$$$
>  <COMPOUND>
O=C(O)C1C(Br)(c2ccccc2)C1(Br)c1ccccc1 (configuration not stated)

>  <RECORDED VALUE>
> 100 µM

$$$$
>  <COMPOUND>
CCOc1ccc(/C=C2/C(=O)N=C(NC(C)=O)N2C)cc1

>  <RECORDED VALUE>
> 100 µM

$$$$
>  <COMPOUND>
Nc1ccc(C(=O)N2CCC[C@H]2CO)c(N)c1

>  <RECORDED VALUE>
> 100 µM

$$$$

QUERY: Any idea what its TGI is? The compound is COc1ccc(CC2NCCc3cc(OC)c(OC)cc32)cc1Br (configuration not stated)
RESULT: > 100 µM

QUERY: Note, next up: O=NN(CCCl)C(=O)NC1CCC(O)CC1 (configuration not stated)
RESULT: > 61 µM

QUERY: Note, next up: O=C1NC(=O)C(CC2CCCCCCCCCCC2=O)C(=O)N1 (configuration not stated)
RESULT: > 100 µM

QUERY: Note, next up: C=CCOc1ccc(C2C(C(=O)OCC)C(=O)CC(C)(O)C2C(=O)OCC)cc1OC (configuration not stated)
RESULT: > 100 µM

QUERY: Note, next up: "O=C1Nc2ccc(F)cc2/C1=C/c1ccc[nH]1"
RESULT: > 25 µM

QUERY: Note, next up: CC(=O)OCC1OC(n2c3c(cc(C#N)c2=S)CCCCC3)C(OC(C)=O)C(OC(C)=O)C1OC(C)=O (configuration not stated)
RESULT: > 100 µM

QUERY: Note, next up: "Cc1c(C(=O)/C=C/c2ccccc2)[n+](=O)c2ccccc2n1[O-]"
RESULT: 29.7 µM
